# reported IC50; entries follow
# tested_system: Decaprenylphosphoryl-beta-D-ribose oxidase (Mycobacterium tuberculosis (strain ATCC 25618 / H37Rv))
# Sequence (P9WJF1 whole entry): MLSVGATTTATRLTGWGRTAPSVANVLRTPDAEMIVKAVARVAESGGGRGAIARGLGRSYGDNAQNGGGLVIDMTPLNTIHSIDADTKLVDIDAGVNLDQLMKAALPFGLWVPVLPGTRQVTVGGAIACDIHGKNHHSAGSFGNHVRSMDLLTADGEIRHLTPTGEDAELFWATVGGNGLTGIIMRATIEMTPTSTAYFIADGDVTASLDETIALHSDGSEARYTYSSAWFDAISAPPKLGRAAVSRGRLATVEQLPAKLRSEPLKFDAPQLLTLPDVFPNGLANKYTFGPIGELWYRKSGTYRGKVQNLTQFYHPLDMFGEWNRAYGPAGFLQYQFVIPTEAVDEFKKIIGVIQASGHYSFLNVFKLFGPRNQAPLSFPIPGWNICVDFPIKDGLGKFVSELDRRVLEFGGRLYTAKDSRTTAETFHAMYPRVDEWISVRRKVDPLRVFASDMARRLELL
# method: Inhibition of Mycobacterium tuberculosis DprE1 expressed in Escherichia coli BL21 (DE3) cells assessed as formation of resorufin using FPR as substrate by Amplex Red hydrogen/peroxidase coupled assay

# smiles_entry, value_operator, IC50 [nM]
measured = [
    ("N#Cc1ncc2c(=O)nc(N3CCN(CC4CCCCC4)CC3)sc2n1", ">", 20000),
    ("O=c1nc(N2CCN(CC3CCCCC3)CC2)sc2nc(Cl)ncc12", ">", 20000),
    ("O=c1nc(N2CCN(CC3CCCCC3)CC2)sc2c(Br)cc(C(F)(F)F)cc12", "=", 1840),
    ("N#Cc1ccc2c(=O)nc(N3CCN(CC4CCCCC4)CC3)sc2n1", "=", 7720),
    ("N#Cc1cc(C(F)(F)F)cc2c(=O)nc(N3CCN(CC4CCCCC4)CC3)sc12", "=", 1700),
    ("O=c1nc(N2CCN(CC3CCCCC3)CC2)sc2c(I)cc(C(F)(F)F)cc12", "=", 2350),
    ("COC(=O)/C=C/c1cc(C(F)(F)F)cc2c(=O)nc(N3CCN(CC4CCCCC4)CC3)sc12", "=", 1240),
]
